assay summary: Human hepatocyte intrinsic clearance assay
Type: in vitro ADME
cond: human hepatocytes
Mark criterion met only for HH CLint values smaller than 3 μl/min/1E6; exact matches and larger values are criterion not met.

compound	assigned class
Cc1c(C(=O)C2CCN(C(=O)[C@@H]3CCC(C)(C)N3)CC2)c2ccncc2n1-c1ccc(F)cc1C(=O)N(C(C)C)C(C)C (single isomer, unassigned) [Example 56-1]	criterion not met
CCN(C(=O)c1cc(F)ccc1-n1c(C)c(C(=O)C2CCN(C(=O)[C@@H]3CCC4(CC4)N3)CC2)c2ccncc21)C(C)C (single isomer, unassigned) [Example 49-2]	criterion not met
CCN(C(=O)c1cc(F)ccc1-n1c(C)c(C(=O)C2CCN(C(=O)[C@H]3NC[C@@H]4C[C@@H]43)CC2)c2ccncc21)C(C)C (single isomer, unassigned) [Example 48-2]	criterion met
Cc1c(C(=O)C2CCN(C(=O)[C@@H]3CCC4(CC4)N3)CC2)c2ccncc2n1-c1ccc(F)cc1C(=O)N1[C@H](C)COC[C@H]1C (single isomer, unassigned) [Example 58-2]	criterion met
CCN(C(=O)c1cc(F)ccc1-n1c(C)c(C(=O)C2CCN(C(=O)[C@H]3NC[C@@H]4C[C@@H]43)CC2)c2ccncc21)C(C)C (single isomer, unassigned) [Example 48-1]	criterion met
CCN(C(=O)c1cc(F)ccc1-n1c(C)c(C(=O)C2CCN(C(=O)[C@H]3NC[C@@H]4C[C@@H]43)CC2)c2ccncc21)C(C)C [Example 47]	criterion met
CC(C)N(C(=O)c1cc(F)ccc1-n1cc(C(=O)C2CN(C(=O)[C@H]3N[C@@H]4CC[C@H]3C4)C2)c2ccnc(F)c21)C(C)C [Example 15]	criterion met
O=C(c1cn(-c2ccc(F)cc2-c2cncnc2C2CC2)c2cnccc12)C1CCN(C(=O)[C@H]2N[C@@H]3CC[C@H]2C3)CC1 [Example 40]	criterion met
CC(C)n1nccc1-c1cc(F)ccc1-n1cc(C(=O)C2CCN(C(=O)[C@H]3N[C@@H]4CC[C@H]3C4)CC2)c2ccncc21 [Example 36]	criterion met
CC(C)N(C(=O)c1cc(F)ccc1-n1cc(C(=O)C2CCN(C(=O)[C@@H]3CC4(CC4)CN3)CC2)c2ccncc21)C(C)C [Example 26]	criterion met
CC(C)N(C(=O)c1cc(F)ccc1-n1cc(C(=O)[C@H]2CCN(C[C@H]3CC[C@H](NS(C)(=O)=O)CC3)C2)c2ccncc21)C(C)C [Example 1]	criterion met
CC(C)N(C(=O)c1cc(F)ccc1-n1cc(C(=O)[C@H]2CCN(C(=O)[C@H]3N[C@@H]4CC[C@H]3C4)C2)c2ccncc21)C(C)C [Example 2]	criterion met
CC(C)N(C(=O)c1cc(F)ccc1-n1cc(C(=O)C2CN(C(=O)[C@H]3N[C@H]4C[C@@H]3[C@@H](F)C4)C2)c2ccncc21)C(C)C [Example 7]	criterion not met
CC(C)N(C(=O)c1cc(F)ccc1-n1cc(C(=O)C2CCN(C(=O)[C@H]3N[C@H]4C[C@@H]3[C@@H](F)C4)CC2)c2ccncc21)C(C)C [Example 22]	criterion met
CCN(C(=O)c1cc(F)ccc1-n1c(C)c(C(=O)C2CCN(C(=O)[C@H]3N[C@@H]4CC[C@H]3C4)CC2)c2ccncc21)C(C)C [Example 46]	criterion met
CCN(C(=O)c1cc(F)ccc1-n1c(C)c(C(=O)[C@@H]2CCN(C(=O)[C@@H]3CCC4(CC4)N3)[C@@H](C)C2)c2ccncc21)C(C)C (single isomer, unassigned) [Example 52-3]	criterion not met
CC(C)N(C(=O)c1cc(F)ccc1-n1cc(C(=O)C2CN(C(=O)[C@H]3N[C@@H]4CC[C@H]3C4)C2)c2ccncc21)C(C)C [Example 5]	criterion met
CCN(C(=O)c1cc(F)ccc1-n1cc(C(=O)C2CN(C(=O)[C@H]3NC4CCC3CC4)C2)c2ccncc21)C(C)C [Example 9]	criterion not met
CC(C)N(C(=O)c1cc(F)ccc1-n1cc(C(=O)C2CCN(C(=O)[C@H]3NC[C@@H]4CCC[C@@H]43)CC2)c2ccncc21)C(C)C [Example 21]	criterion met
CC(C)c1ccncc1-c1cc(F)ccc1-n1cc(C(=O)C2CCN(C(=O)[C@H]3N[C@@H]4CC[C@H]3C4)CC2)c2ccncc21 [Example 41]	criterion met
CCN(C(=O)c1cc(F)ccc1-n1c(C)c(C(=O)[C@@H]2CCN(C(=O)[C@@H]3CCC4(CC4)N3)[C@@H](C)C2)c2ccncc21)C(C)C (single isomer, unassigned) [Example 52-4]	criterion not met
CCN(C(=O)c1cc(F)ccc1-n1c(C)c(C(=O)[C@@H]2CCN(C(=O)[C@@H]3CCC4(CC4)N3)[C@@H](C)C2)c2ccncc21)C(C)C (single isomer, unassigned) [Example 52-2]	criterion not met
